Tested on: OVCAR-4 ovarian
Experiment: NCI tumour cell line growth inhibition, 48 h
observed.property: TGI

So what does the record say about TGI for C=CCn1c(=O)c2ccccc2[n+]2c(-c3cccc([N+](=O)[O-])c3)csc12 ?
> 100 µM

So what does the record say about TGI for C=C(C(=O)OC)[C@H]1CC/C(C)=C/CC/C(C)=C/CC[C@@]2(C)O[C@@H]2C1 ?
> 100 µM

So what does the record say about TGI for O=S(=O)(O)c1ccc(Nc2ccnc3cc(Cl)ccc23)cc1 ?
> 100 µM

So what does the record say about TGI for Cc1ccc(S(=O)(=O)N2CCN(CCO)CCN(S(=O)(=O)c3ccc(C)cc3)CCN(CCO)CC2)cc1 ?
37.6 µM

So what does the record say about TGI for Oc1ccc2ccccc2c1OCc1nnc(CCCCCCCCc2nnc(COc3c(O)ccc4ccccc34)o2)o1 ?
> 100 µM

So what does the record say about TGI for COc1ccc(C(C)NNC(=O)c2ccncc2)cc1F (stereo not drawn) ?
> 100 µM

So what does the record say about TGI for CC[C@H](C)[C@H](NC(=O)c1nccn1C)C(=O)N(C)[C@H](C[C@@H](OC(C)=O)c1nc(C(=O)N[C@@H](Cc2ccccc2)C[C@H](C)C(=O)OC)cs1)C(C)C ?
> 33.3 µM

So what does the record say about TGI for CCCC(=O)Nc1cc(/C=C/C(=O)N2C[C@H]3C[C@@]34C2=CC(=O)c2[nH]cc(C)c24)n(C)c1 ?
0.0111 µM

---

Test system: UACC-257 melanoma
Experiment: NCI tumour cell line growth inhibition, 48 h
observed.property: TGI

So what does the record say about TGI for Cc1nn2c(/C=C3\C(=O)Nc4ccccc43)c(C)nc2s1 ?
> 100 µM

So what does the record say about TGI for O=C(NC/C=C/Br)NC1CCNc2ccccc21 (centres undefined) ?
54.9 µM

So what does the record say about TGI for O=C1OC2C=CC1C1(CCOC1=O)C2 (centres undefined) ?
> 100 µM

So what does the record say about TGI for COC(=O)C1=C(C)NC2(C)OC(C)(O)C(C(C)=O)C12C(C)=O (centres undefined) ?
> 100 µM

So what does the record say about TGI for CN(C)C=Nc1nncc2n[nH]nc12 ?
> 100 µM

So what does the record say about TGI for CC(=O)Nc1cc2cc(NS(=O)(=O)c3cc(C(F)(F)F)cc(C(F)(F)F)c3)ccc2oc1=O ?
> 100 µM

So what does the record say about TGI for c1ccc(CNc2ncnc3n[nH]nc23)cc1 ?
> 100 µM

So what does the record say about TGI for CCOC(=O)C1=C(C)N(c2ccc(C)cc2)C2(O)C=CC(=O)C3=C(O)c4ccccc4C(=O)C312 (centres undefined) ?
57.9 µM

So what does the record say about TGI for COC(=O)c1c(C#C[Si](C)(C)C)c(C#C[Si](C)(C)C)c(C#C[Si](C)(C)C)c(C#C[Si](C)(C)C)c1C(=O)OC ?
> 100 µM

So what does the record say about TGI for C=C1C(=O)O[C@H]2C3C(=C(C)CC[C@@H]12)C(=O)[C@@H]1OC31C (some centres undefined) ?
5.98 µM

So what does the record say about TGI for COc1cc(S(=O)(=O)N/N=C/c2cc(Br)c(O)c(OC)c2)c(OC)cc1NC(C)=O ?
> 100 µM

So what does the record say about TGI for COC(=O)/C(=N/O)C(C(=O)OC)C(=O)C(=O)Nc1c(Cl)cc(C)cc1S(=O)(=O)O (centres undefined) ?
> 100 µM

So what does the record say about TGI for CN/N=C(\C(=O)Nc1ccc([N+](=O)[O-])cc1[N+](=O)[O-])C1NC(=O)NC1=O (centres undefined) ?
> 100 µM

So what does the record say about TGI for S=C(Nc1ccccc1)N1CCn2c1nsc2=Nc1ccccc1 ?
> 100 µM

Where these numbers come from: PubChem BioAssay (NCI)
